# RUN_DESCRIPTION: NCI Yeast Anticancer Drug Screen. Data for the rad50 strain (AID 155);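 note: 0% = growth of vehicle-only cultures of the same strain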
# EXPERIMENTAL_PARAMETERS: S. cerevisiae rad50 strain growth inhibition; at 5.0 µM (retest, dose inferred, filed as 0.5); active compounds read high
The panel holds about 79,000 compounds, 15% with a hit somewhere; the sample as a whole holds those more often.
OBSERVABLE: growth inhibition (%)
Please give a number only; it is taken to be in %.

| COMPOUND | growth inhibition [%] |
| --- | --- |
| O=C(Nc1ccccc1)c1cc([N+](=O)[O-])ccc1O | -1 |
| CC1(O)CC([CH2][Hg][I])OC([CH2][Hg][I])C1 (configuration not stated) | 99 |
| Oc1c(Cl)c(Cl)c(Cl)c(Cl)c1Cl.[Cu+2] | 23 |
| Nc1nc(N)c(-c2ccc(Cl)c(Cl)c2)c(CCc2ccc(CNC(=O)c3ccc(S(=O)(=O)F)cc3)cc2)n1 | -4 |

Input: Sample CC12CCC(C1)C(C)(C)C2OC(=O)c1ccccc1N (configuration not stated) — what was its growth inhibition?
Output: -6

Input: Sample CCCCCCCC1(c2ccc(N)cc2)CCC(=O)NC1=O (configuration not stated) — what was its growth inhibition?
Output: 31

Input: Sample O=c1ccn(C2OC(CO)C(O)C2O)c(=O)[n]1[Hg][c]1ccccc1 (configuration not stated) — what was its growth inhibition?
Output: 99
